Entry source: patent US7153869B2

Answer each item with its documented EPO/EBP-Ig % inh @ 50 μM.
Assayed System: EBP-Ig (N-terminal 225 amino acids of the human EPO receptor joined to an Ig heavy chain) (Homo sapiens)
Construct: Ig heavy chain (fusion partner); made in house; host or cells: NSO cells (secreted into conditioned media)
Measurement Protocol: Inhibition of [125I]EPO binding to immobilized EBP-Ig (EPO binding protein-Ig), scintillation Flash plate competition assay
Measurement Parameters: Table 11; 50 μM

[ask] Provide measured EPO/EBP-Ig % inh @ 50 μM value, entry: O=C(O)CCC(C(=O)NCCOCCOCCNC(=O)C(CCC(=O)O)N(Cc1cccc(NC(=O)c2ccco2)c1)Cc1cccc(Oc2ccccc2)c1)N(Cc1cccc(NC(=O)c2ccco2)c1)Cc1cccc(Oc2ccccc2)c1 (centres unmarked)
[reply] 56%

[ask] Provide measured EPO/EBP-Ig % inh @ 50 μM value, entry: CC(C)(C)OC(=O)CCC(C(=O)NCCOCCOCCNC(=O)C(CCC(=O)OC(C)(C)C)N(Cc1ccc(OCc2ccccc2)cc1)Cc1ccc(OCc2ccccc2)cc1)N(Cc1ccc(OCc2ccccc2)cc1)Cc1ccc(OCc2ccccc2)cc1 (centres unmarked)
[reply] 0%

* * *

Assayed System: EBP-Ig (N-terminal 225 amino acids of the human EPO receptor joined to an Ig heavy chain) (Homo sapiens)
Construct: Ig heavy chain (fusion partner); made in house; host or cells: NSO cells (secreted into conditioned media)
Measurement Protocol: Inhibition of [125I]EPO binding to immobilized EBP-Ig (EPO binding protein-Ig), scintillation Flash plate competition assay
Measurement Parameters: 50 μM compound; Table 12
Endpoint: EPO/EBP-Ig % inh @ 50 μM (%)
Respond with the bare value in %.

[ask] Provide measured EPO/EBP-Ig % inh @ 50 μM value, entry: CC(C)(C)OC(=O)CC(C(=O)NCCCCCCCCCCCCNC(=O)C(CC(=O)OC(C)(C)C)N(C/C=C/c1cccc(Oc2ccc(C(C)(C)C)cc2)c1)C/C=C/c1cccc(Oc2ccc(C(C)(C)C)cc2)c1)N(C/C=C/c1cccc(Oc2ccc(C(C)(C)C)cc2)c1)C/C=C/c1cccc(Oc2ccc(C(C)(C)C)cc2)c1 (stereo not shown)
[reply] 0

* * *

Assayed System: EBP-Ig (N-terminal 225 amino acids of the human EPO receptor joined to an Ig heavy chain) (Homo sapiens, UniProt P19235)
Construct: Ig heavy chain (fusion partner); made in house; host or cells: NSO cells (secreted into conditioned media)
Sequence (P19235 25-250 limits assumed): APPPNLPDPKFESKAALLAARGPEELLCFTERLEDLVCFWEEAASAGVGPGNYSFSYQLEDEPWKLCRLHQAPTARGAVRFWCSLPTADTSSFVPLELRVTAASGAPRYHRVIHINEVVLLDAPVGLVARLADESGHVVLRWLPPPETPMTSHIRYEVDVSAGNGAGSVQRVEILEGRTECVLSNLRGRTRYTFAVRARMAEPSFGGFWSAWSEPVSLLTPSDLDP
Measurement Protocol: Inhibition of [125I]EPO binding to immobilized EBP-Ig (EPO binding protein-Ig), scintillation Flash plate competition assay
Measurement Parameters: Table 5; 50 μM
Classify by measured EPO/EBP-Ig % inh @ 50 μM: yes if it is equal to or exceeds 20%, no if it is smaller.

[ask] Please check the record O=C(O)CCC(C(=O)O)N(C/C=C/c1ccc(NC(=O)C(F)(F)C(F)(F)F)cc1)Cc1ccc(OCc2ccccc2)cc1 (stereo not shown) and state if its EPO/EBP-Ig % inh @ 50 μM is at or above 20%.
[reply] no

[ask] Please check the record O=C(O)CCC(C(=O)O)N(C/C=C/c1ccc(NC(=O)c2ccc([N+](=O)[O-])cc2)cc1)Cc1ccc(OCc2ccccc2)cc1 (stereo not shown) and state if its EPO/EBP-Ig % inh @ 50 μM is at or above 20%.
[reply] no

[ask] Please check the record COc1ccc(C(=O)Nc2ccc(/C=C/CN(Cc3ccc(OCc4ccccc4)cc3)C(CCC(=O)O)C(=O)O)cc2)cc1 (stereo not shown) and state if its EPO/EBP-Ig % inh @ 50 μM is at or above 20%.
[reply] yes

[ask] Please check the record O=C(O)CCCC(=O)Nc1ccc(/C=C/CN(Cc2ccc(OCc3ccccc3)cc2)C(CCC(=O)O)C(=O)O)cc1 (stereo not shown) and state if its EPO/EBP-Ig % inh @ 50 μM is at or above 20%.
[reply] no

[ask] Please check the record O=C(O)CCC(C(=O)O)N(C/C=C/c1ccc(NC(=O)Oc2ccccc2)cc1)Cc1ccc(OCc2ccccc2)cc1 (stereo not shown) and state if its EPO/EBP-Ig % inh @ 50 μM is at or above 20%.
[reply] yes

[ask] Please check the record Cc1ccc(S(=O)(=O)Nc2ccc(/C=C/CN(Cc3ccc(OCc4ccccc4)cc3)C(CCC(=O)O)C(=O)O)cc2)cc1 (stereo not shown) and state if its EPO/EBP-Ig % inh @ 50 μM is at or above 20%.
[reply] yes

* * *

Assayed System: EBP-Ig (N-terminal 225 amino acids of the human EPO receptor joined to an Ig heavy chain) (Homo sapiens, UniProt P19235)
Construct: Ig heavy chain (fusion partner); made in house; host or cells: NSO cells (secreted into conditioned media)
Measurement Protocol: Inhibition of [125I]EPO binding to immobilized EBP-Ig (EPO binding protein-Ig), scintillation Flash plate competition assay
Measurement Parameters: 0.5 nM [125I]EPO; 0–500 μM test compound
Endpoint: IC30 μM (Inhibition of EPO binding to EBP-Ig) (µM)
Respond with the bare value in µM.

[ask] Provide measured IC30 μM (Inhibition of EPO binding to EBP-Ig) value, entry: COc1ccc(CCNC(=O)C(CCCCN)N(CC=Cc2ccccc2)CC=Cc2ccccc2)cc1 (stereo not shown) [compound 211]
[reply] 20

[ask] Provide measured IC30 μM (Inhibition of EPO binding to EBP-Ig) value, entry: CC(C)(C)c1ccc(Oc2cccc(/C=C/CN(C/C=C/c3cccc(Oc4ccc(C(C)(C)C)cc4)c3)C(CCC(=O)O)C(=O)O)c2)cc1 (stereo not shown) [compound 104]
[reply] 10

[ask] Provide measured IC30 μM (Inhibition of EPO binding to EBP-Ig) value, entry: CC(=O)O.COC(=O)c1cccc(C=CCNC(CCCCNC(=O)OCc2ccccc2)C(=O)OC)c1 (stereo not shown) [compound 321]
[reply] 45

[ask] Provide measured IC30 μM (Inhibition of EPO binding to EBP-Ig) value, entry: Cc1ccc(C(=O)Nc2cccc(CN(Cc3cccc(Oc4ccccc4)c3)C(CCC(=O)O)C(=O)NCCOCCOCCNC(=O)C(CCC(=O)O)N(Cc3cccc(NC(=O)c4ccc(C)cc4)c3)Cc3cccc(Oc4ccccc4)c3)c2)cc1 (stereo not shown) [compound 249]
[reply] 7

[ask] Provide measured IC30 μM (Inhibition of EPO binding to EBP-Ig) value, entry: O=C(O)CC(C(=O)O)N(CC=Cc1cccc(Oc2ccccc2)c1)CC=Cc1cccc(Oc2ccccc2)c1 (stereo not shown) [cpd 107, N,N-bis(3-Phenoxycinnamyl)Asp-OH]
[reply] 30

[ask] Provide measured IC30 μM (Inhibition of EPO binding to EBP-Ig) value, entry: O=C(O)CCC(=O)NCCCCC(C(=O)NCCCOCCOCCOCCCNC(=O)C(CCCCNC(=O)CCC(=O)O)N(Cc1ccc(OCc2ccccc2)cc1)Cc1ccc(OCc2ccccc2)cc1)N(Cc1ccc(OCc2ccccc2)cc1)Cc1ccc(OCc2ccccc2)cc1 (stereo not shown) [compound 271]
[reply] 2

[ask] Provide measured IC30 μM (Inhibition of EPO binding to EBP-Ig) value, entry: NCCCCC(C(=O)NCc1ccc(OCC=Cc2ccccc2)cc1)N(CC=Cc1ccccc1)CC=Cc1ccccc1 (stereo not shown) [compound 220]
[reply] 30

* * *

Assayed System: EBP-Ig (N-terminal 225 amino acids of the human EPO receptor joined to an Ig heavy chain) (Homo sapiens)
Construct: Ig heavy chain (fusion partner); made in house; host or cells: NSO cells (secreted into conditioned media)
Measurement Protocol: Inhibition of [125I]EPO binding to immobilized EBP-Ig (EPO binding protein-Ig), scintillation Flash plate competition assay
Measurement Parameters: read-out: IC50, μM (Inhibition of EPO binding to EBP-Ig); 0.5 nM [125I]EPO; concentration reducing corrected total binding to 50%
Endpoint: IC50 (µM)
Respond with the bare value in µM.

[ask] Provide measured IC50 value, entry: Cc1ccc(C(=O)Nc2cccc(CN(Cc3cccc(Oc4ccccc4)c3)C(CCC(=O)O)C(=O)NCCOCCOCCNC(=O)C(CCC(=O)O)N(Cc3cccc(NC(=O)c4ccc(C)cc4)c3)Cc3cccc(Oc4ccccc4)c3)c2)cc1 (centres unmarked)
[reply] 10

[ask] Provide measured IC50 value, entry: "O=C(O)CN(C/C=C/c1cccc(Oc2ccccc2)c1)C/C=C/c1cccc(Oc2ccccc2)c1"
[reply] 85

[ask] Provide measured IC50 value, entry: COC(=O)C(CCCCN)N(Cc1cccc(OCc2ccccc2)c1)Cc1cccc(OCc2ccccc2)c1 (centres unmarked)
[reply] 10

[ask] Provide measured IC50 value, entry: NCCCCC(C(=O)O)N(Cc1cccc(Oc2ccccc2)c1)C(=O)C=Cc1cccc(OCc2ccccc2)c1 (centres unmarked)
[reply] 65

[ask] Provide measured IC50 value, entry: O=C(O)CCC(=O)NCCCCC(C(=O)NCCOCCOCCNC(=O)C(CCCCNC(=O)CCC(=O)O)N(Cc1ccc(OCc2ccccc2)cc1)Cc1ccc(OCc2ccccc2)cc1)N(Cc1ccc(OCc2ccccc2)cc1)Cc1ccc(OCc2ccccc2)cc1 (centres unmarked)
[reply] 1.5

* * *

Assayed System: EBP-Ig (N-terminal 225 amino acids of the human EPO receptor joined to an Ig heavy chain) (Homo sapiens, UniProt P19235)
Construct: Ig heavy chain (fusion partner); made in house; host or cells: NSO cells (secreted into conditioned media)
Measurement Protocol: Inhibition of [125I]EPO binding to immobilized EBP-Ig (EPO binding protein-Ig), scintillation Flash plate competition assay
Measurement Parameters: read-out: % inh @ 50 μM (Inhibition of EPO binding to EBP-Ig)
Answer each item with its documented inhibition at 50 µM.
Respond with the bare value in %.

[ask] Provide measured inhibition at 50 µM value, entry: O=C(O)CC(C(=O)NCCCOCCCCOCCCNC(=O)C(CC(=O)O)N(Cc1ccc(OCc2ccccc2)cc1)Cc1ccc(OCc2ccccc2)cc1)N(Cc1ccc(OCc2ccccc2)cc1)Cc1ccc(OCc2ccccc2)cc1 (stereo not shown)
[reply] 75

[ask] Provide measured inhibition at 50 µM value, entry: COC(=O)C(CCCCN)N(C/C=C/c1cccc(Oc2ccc(C(C)(C)C)cc2)c1)Cc1cccc(OCc2ccccc2)c1 (stereo not shown)
[reply] 46

[ask] Provide measured inhibition at 50 µM value, entry: NCCCCC(C(=O)O)N(Cc1cccc(Oc2ccccc2)c1)C(=O)C=Cc1cccc(OCc2ccccc2)c1 (stereo not shown)
[reply] 46

[ask] Provide measured inhibition at 50 µM value, entry: O=C(O)CC(C(=O)NCCCOCCOCCOCCCNC(=O)C(CC(=O)O)N(Cc1ccc(OCc2ccccc2)cc1)Cc1ccc(OCc2ccccc2)cc1)N(Cc1ccc(OCc2ccccc2)cc1)Cc1ccc(OCc2ccccc2)cc1 (stereo not shown)
[reply] 66

[ask] Provide measured inhibition at 50 µM value, entry: O=C(O)C(CO)N(CC=Cc1ccc(-c2ccccc2)cc1)CC=Cc1ccc(-c2ccccc2)cc1 (stereo not shown)
[reply] 48

[ask] Provide measured inhibition at 50 µM value, entry: COC(=O)C(CCCCN)N(C/C=C/c1cccc(Oc2ccccc2)c1)Cc1cccc(Oc2ccccc2)c1 (stereo not shown)
[reply] 60

[ask] Provide measured inhibition at 50 µM value, entry: NCCCCC(C(=O)NCCc1ccccc1)N(CC=Cc1ccccc1)CC=Cc1ccccc1 (stereo not shown)
[reply] 48

[ask] Provide measured inhibition at 50 µM value, entry: COc1ccccc1CCNC(=O)C(CCCCN)N(CC=Cc1ccccc1)CC=Cc1ccccc1 (stereo not shown)
[reply] 51

[ask] Provide measured inhibition at 50 µM value, entry: CCCCC(=O)Nc1cccc(CN(Cc2cccc(Oc3ccccc3)c2)C(CCC(=O)O)C(=O)NCCOCCOCCNC(=O)C(CCC(=O)O)N(Cc2cccc(NC(=O)CCCC)c2)Cc2cccc(Oc3ccccc3)c2)c1 (stereo not shown)
[reply] 47

[ask] Provide measured inhibition at 50 µM value, entry: NCCCCC(C(=O)NCc1ccccc1)N(CC=Cc1ccccc1)CC=Cc1ccccc1 (stereo not shown)
[reply] 49

[ask] Provide measured inhibition at 50 µM value, entry: COc1ccc(CCNC(=O)C(CCCCN)N(CC=Cc2ccccc2)CC=Cc2ccccc2)cc1 (stereo not shown)
[reply] 62

[ask] Provide measured inhibition at 50 µM value, entry: COC(=O)C(CCCCN)N(Cc1ccc(OCc2ccccc2)cc1)Cc1cccc(N)c1 (stereo not shown)
[reply] 35

[ask] Provide measured inhibition at 50 µM value, entry: COC(=O)c1cccc(C=CCNC(Cc2ccc(OC)cc2)C(=O)OC)c1 (stereo not shown)
[reply] 33

[ask] Provide measured inhibition at 50 µM value, entry: O=C(O)CC(C(=O)O)N(C/C=C/c1cccc(Oc2ccccc2)c1)C/C=C/c1cccc(Oc2ccccc2)c1 (stereo not shown)
[reply] 81

[ask] Provide measured inhibition at 50 µM value, entry: O=C(O)CCC(C(=O)O)N(C/C=C/c1cccc(Oc2cccc(C(F)(F)F)c2)c1)C/C=C/c1cccc(Oc2cccc(C(F)(F)F)c2)c1 (stereo not shown)
[reply] 70

[ask] Provide measured inhibition at 50 µM value, entry: COC(=O)C(CCCCN)N(Cc1ccc(OCc2ccccc2)cc1)Cc1ccc(OCc2ccccc2)cc1 (stereo not shown)
[reply] 54

[ask] Provide measured inhibition at 50 µM value, entry: COc1cccc(CCNC(=O)C(CCCCNC(=O)CCC(=O)O)N(CC=Cc2ccccc2)CC=Cc2ccccc2)c1 (stereo not shown)
[reply] 55

[ask] Provide measured inhibition at 50 µM value, entry: "O=C(O)[C@H](CO)N(C/C=C/c1cccc(Oc2ccccc2)c1)C/C=C/c1cccc(Oc2ccccc2)c1"
[reply] 57

[ask] Provide measured inhibition at 50 µM value, entry: O=C(O)CCC(C(=O)NCCOCCOCCNC(=O)C(CCC(=O)O)N(Cc1ccc(OCc2ccccc2)cc1)Cc1ccc(OCc2ccccc2)cc1)N(Cc1ccc(OCc2ccccc2)cc1)Cc1ccc(OCc2ccccc2)cc1 (stereo not shown)
[reply] 79
